// reported Water content (%) after 24 hours for each item listed
- method_summary: Hygroscopicity: water content before and after 24 hours in a desiccator at 60° C. and humidity 100%
- Type: physicochemical
- test_parameters: after 24 hours in a desiccator at a temperature of 60° C. and a humidity of 100%
- Protocol: Aripiprazole anhydride crystals B have a low hygroscopicity; and, for example, maintain a water content of 0.4% or less, and further 0.1% or less, after 24 hours of conditioning in a desiccator set at a temperature of 60° C. and a humidity of 100%. Known methods for measuring water content can be used as long as they are commonly used for measuring the water content of crystals. For example, a method such as the Karl Fischer method can be used. […]
The response must be a number in % with no trailing unit.

molecule	Water content (%) after 24 hours
O=C1CCc2ccc(OCCCCN3CCN(c4cccc(Cl)c4Cl)CC3)cc2N1 [Example 1]	0.10

(Q) Identify measured Water content (%) after 24 hours corresponding to O=C1CCc2ccc(OCCCCN3CCN(c4cccc(Cl)c4Cl)CC3)cc2N1 [Example 3]
(A) 0.17
